Consider the following binders; for each one, report its pEC50.
Biological target: T1, MERS-CoV Spike protein fragment (RBD, aa 367-606, His tag) (MERS-CoV, UniProt K9N5Q8 367-606)
T1 sequence: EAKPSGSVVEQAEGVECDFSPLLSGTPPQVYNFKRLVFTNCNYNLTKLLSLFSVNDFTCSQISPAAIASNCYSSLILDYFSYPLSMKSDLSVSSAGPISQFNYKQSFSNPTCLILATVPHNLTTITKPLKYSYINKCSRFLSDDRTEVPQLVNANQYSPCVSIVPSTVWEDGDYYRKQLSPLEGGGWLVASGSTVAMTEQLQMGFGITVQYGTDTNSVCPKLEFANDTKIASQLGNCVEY
Test: iQue flow cytometry, antigen-coated beads
Answers are plain numbers, as −log10 of the molar value.

Binder	Observed result
NI-607.820_B7 (antibody, V domains shown) VH: EVQLVESGGGLVQPGRSLRLSCAASGFTFDDFDMHWVRQAPGKGLEWVSGVTWNSGIIGYADSVKGRFTISRDNAKNSLYLQMNSLRAEDTALYYCAKEFYPRYGSGIRSHYFGMDVWGQGTTVTVSS VL: QSVLTQSPSASGTPGQRVTISCSGSSSNVGSNAVNWYQQLPGTAPKLLIYSNNRRPSGVPNRFSGSKSGTSASLAISGLQSDDEADYYCAAWDDSLDGPTFGGGTKLTVL	6.10
NI-607.532_C11 (antibody, V domains shown) VH: QVQLVESGGGLIQPGGSLRLSCAASGFTVSSNYMSWVRQAPGKGLEWVSVIYSGGSTYYADSVKGRFTISRDNSKNTLFLQMNSLRAEDTAVYYCARDLQYYGMDVWGQGTTVTVSS VL: DIQMTQSPSFLSASVGDRVTITCRASQGISSYLAWYQQKPGKAPKLLIYAASTLQSGVPSRFSGSGSGTEFTLTISSLQPEDFATYYCQQLDSYPPRDTFGQGTKVEIK	6.00
NI-607.532_B6 (antibody, V domains shown) VH: QVQLVQSGAEVKKPGASVKVSCKASGYTFTSYDINWVRQATGQGLEWMGWMNPNSGNTGYAQKFQGRVTMTRNTSISTAYMELSSLRSEDTAVYYCARVVSLTGFFDYWGQGTLVTVSS VL: SYELTQPPSVSVAPGKTARITCGGNNIGSKNVHWYQQKPGQAPVLVVYDDSDRPSGIPERFSGSNSGNTATLTISRVEAGDEADYYCQVWDSSSDPWVFGGGTKLTVL	6.00

Your task in this section: give pEC50 for each listed record.
1. NI-607.274_B7 (antibody, V domains shown) VH: QVQLVESGGGRVQPGRSLRLSCAASGFTFSTHGMHWVRQVPGKGLDWITGITYDGSDQFYADSVKGRFTISRDNSKNMLYLQMNSLRAEDTAVYFCAKDLEWLTNYLDHWGQGTLVTVSS VL: DVVMTQSPGTLSVSPGERATLSCRASQNINYNLAWYQQKPGQAPRLLIFDASTRATGIPARFTGSGSGTEFTLTISSLQSEDFAVYYCQQSNAWLTFGGGTKVEIK
2. NI-607.761_B7 (antibody, V domains shown) VH: EVQLVESGGGVVQPGRSLRLSCAASGFTFTRYGMHWVRQAPGKGLEWVAVIWYDGNNKNYEDSVRGRFTISRDNSKNTLFLQMNSLRAEDTAVYYCARGRRGGYSYGLFDYWGQGILVTVSS VL: AIRMTQSPSSLSASVGDRVTITCQASQDISNYLNWYQQKPGKAPKLLIYDASNLETGVPSRFSGSGSGTDFTFTISSLQPEDVATYSCQQYDNLPLTFGGGTKVEIK
3. NI-607.649_B11 (antibody, V domains shown) VH: QVQLVQSGAEVKKPGSSVKVSCKASGGTFSNYAISWVRQAPGQGLEWMGGIIPIFGTANYAQKFQGRVTITADESTSTAYMELSSLRSEDTAVYYCAGDRWYYDSSGYPTPDEYFQHWGQGTQVTVSS VL: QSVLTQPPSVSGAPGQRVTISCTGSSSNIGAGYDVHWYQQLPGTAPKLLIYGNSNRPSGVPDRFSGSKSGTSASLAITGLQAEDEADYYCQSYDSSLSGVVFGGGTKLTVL
4. NI-607.429_E4 (antibody, V domains shown) VH: QVQLVESGGGLVQPGGSLRLSCAASGFTVSSNYMSWVRQAPGKGLEWVSVIYSGGSTFYADSVKGRFTISRDNSKNTLYLQMNSLRAEDTAVYYCARDLQESGMDVWGQGTTVTVSS VL: DIQLTQSPSSVSASVGDRVTITCRASQGISSWLAWYQQKPGKAPKLLIYAASSLQSGVPSRFSGSGSGTDFTLTISSLQPEDFATYYCQQANSFPTFGQGTRLEIK
5. NI-607.531_D8 (antibody, V domains shown) VH: EVQLVESGGGLVQPGRSLRLSCAASGFIFDDYAMHWVRQAPGKGLEWVSGISWNSDSIGYADSVKGRFTISRDNAKNSLYLQMNSLRAEDTALYYCAKGSRSDWSNPSDYWGQGTLVTVSS VL: SYELTQPPSVSVAPGKTARITCGGNNIGSKSVHWYQQKPGQAPVLVVYDDSDRPSGIPERFSGSNSGNTATLTISRVEAGDEADYYCQVWDSSSDPVVFGGGTKLTVL

Result:
1: 6.05; 2: 6.70; 3: 6.00; 4: 6.70; 5: 6.00

Your task in this section: give pEC50 for each listed record.
1. NI-607.531_E7 (antibody, V domains shown, also called F31 E7) VH: EVQLVESGGGVVQPGRSLRLSCAASGFTFNFYSMHWVRQVPGKGLEWVAVISFDGSTKHYAESLRGRFAVSRDNSKSTLYLQMNSLRPEDTAVYYCASPPLSPIPAAGTPLDYWGQGTLVTVSS VL: EIVMTQSPDSLAVSLGERATINCKSSQSIFYRSDDKDFLAWYQQKPGQPPKLLISWASTRESGVPDRFSGSGSGTDFTLTISSLQAEDVAVYYCQQFYYTPFTFGPGTKLEIK
2. NI-607.529_B9 (antibody, V domains shown) VH: QVQLQESGPGLVKPSETLSLTCTVSGGSISSSSYYWGWIRQPPGKGLEWIGNIYYSGSTYYNPSLKSRVTISVDTSKNQFSLKLNSVTAADTAVYFCARLLWLRGSYYWGQGTLVTVSS VL: SYELTQPHSVSESPGKTVTISCTGSSGSIASNYVQWYQQRPGSAPTTVIYEDNQRPSGVPDRFSGSIDSSSNSASLTISGLKTEDEADYYCQSYDSSNWVFGGGTKLTVL

Result:
1: 6.10; 2: 6.52
